Target: ScLsb2
Experiment: SPOT peptide array binding signal intensity (averaged, normalized) (arbitrary units (background-subtracted, floor 0; scale differs between SH3 domains)); higher = stronger binding of the SH3 domain to the peptide
Below is a list of entries, each paired with its recorded SPOT peptide array binding signal intensity value.
measurement type: SPOT peptide array binding signal intensity

| binder | bound operator | reported |
| --- | --- | --- |
| TKRKRPARLIFYDSK | = | 5 |
| QPWTDQFEKLEKEVS | ≤ | 0 |
| VAPPPLPNRQLPNLD | = | 203 |
| VFQFQMPTTPISTKM | ≤ | 0 |
| RNNRPVPPPPPMRTT | = | 13.5 |
| MTKTPETSPPKRPMG | = | 2.5 |
| RLSFFFPLDPAYIRN | ≤ | 0 |
